Assay: chemical genetic growth profiling, strain panel (AID 1159580);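 further: tested at 20 µM; growth read once vehicle control cultures reached saturation at 30 °C; 1 = growth at the plate median or of vehicle wells; lower values mean less growth of the strain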
Details: S. cerevisiae deletion strains, growth OD, locus YNL322C, strain KRE1, hits give low values
Out of some 5,500 compounds screened, about 2,000 (36%) were called active. Roughly 18% stayed inconclusive and do not appear here. The list shows a part of the results.
measuredEndpoint: normalized growth

Look over these answered cases.
molecule: Cc1[nH]ncc1-c1ccccc1
normalized growth: 1.01 (inactive)

molecule: Nc1ccc(S(=O)(=O)Nc2ccccn2)cc1
normalized growth: 1 (inactive)

molecule: C=CCC1(C(C)CCC)C(=O)N=C(S)NC1=O (stereo unspecified)
normalized growth: 0.989 (inactive)

molecule: Nc1ccc(C(=O)NCC(=O)O)cc1
normalized growth: 0.997 (inactive)

molecule: COc1ccc(-c2ccnc(SCC(=O)NCCSCc3ccco3)n2)cc1
normalized growth: 1.01 (inactive)

## Task Answer with the recorded normalized growth of Nc1nc2c(ncn2C2C[C@H](O)[C@@H](CO)O2)c(=O)[nH]1 (stereo partly specified) only.
## Result 1 (inactive)

## Task Answer with the recorded normalized growth of CC(C)NCC(O)c1ccc2ccccc2c1 (stereo unspecified) only.
## Result 1.01 (inactive)

## Task Answer with the recorded normalized growth of `O=C(NC(=S)Nc1ccccn1)c1ccccc1` only.
## Result 1 (inactive)

## Task Answer with the recorded normalized growth of `CSC1=NCN(Cc2ccccc2)CN1` only.
## Result 0.972 (inactive)

## Task Answer with the recorded normalized growth of NCC(CC(=O)O)c1ccc(Cl)s1 (stereo unspecified) only.
## Result 0.999 (inactive)

## Task Answer with the recorded normalized growth of `Cc1c(-c2ccnc(N)n2)nnn1-c1ccc(Cl)cc1Cl` only.
## Result 1.01 (inactive)

## Task Answer with the recorded normalized growth of `CC(C)(C)C(=O)NC(=S)Nc1cccc(C(F)(F)F)c1` only.
## Result 0.984 (inactive)

## Task Answer with the recorded normalized growth of `C[C@@]1(C2CCCC2)Cc2cc(OCC(=O)O)c(Cl)c(Cl)c2C1=O` only.
## Result 1 (inactive)

## Task Answer with the recorded normalized growth of `CC(=O)Nc1cc([As](=O)(O)O)ccc1O` only.
## Result 1 (inactive)

## Task Answer with the recorded normalized growth of OC(CNCCc1cccs1)COc1ccccc1 (stereo unspecified) only.
## Result 1 (inactive)

## Task Answer with the recorded normalized growth of `CNC[C@@H](O)c1ccc(O)c(O)c1` only.
## Result 1 (inactive)

----------
Known normalized growth of a selection of molecules
Experiment: chemical genetic growth profiling, strain panel (AID 1159580);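 further: tested at 20 µM; growth read once vehicle control cultures reached saturation at 30 °C; 1 = growth at the plate median or of vehicle wells; lower values mean less growth of the strain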
Settings: S. cerevisiae deletion strains, growth OD, locus YKL085W, strain MDH1, hits give low values
Among all 5,500 compounds or so, about 2,000 (36%) were called active. About 18% were inconclusive and are not listed. This is one part of the list.
Reply with the value as a number alone.

Look over these answered cases.
molecule: Nc1ncnc2c1ncn2[C@@H]1O[C@H](CO)[C@@H](O)[C@H]1O
normalized growth: 0.965

molecule: COc1cc2c(c(OC)c1OC)-c1ccc(O)c(=O)cc1[C@@H](NC(C)=O)CC2
normalized growth: 0.91

molecule: N[C@@H](Cc1ccc(O)c(O)c1)C(=O)O
normalized growth: 1

## Task Answer with the recorded normalized growth of `CS(=O)(=O)CCCCN=C=S` only.
## Result 1

## Task Answer with the recorded normalized growth of `c1ccc2c3c([nH]c2c1)CNCC3` only.
## Result 1

## Task Answer with the recorded normalized growth of `O=C(O)c1cccnc1Nc1cccc(C(F)(F)F)c1` only.
## Result 0.916

## Task Answer with the recorded normalized growth of `CC(C)(C)NC[C@@H](O)COc1nsnc1N1CCOCC1` only.
## Result 0.983

## Task Answer with the recorded normalized growth of `COc1c2c(cc3c1OCO3)CCN(C)C2` only.
## Result 0.999

## Task Answer with the recorded normalized growth of `C/C=C/c1ccc2c(c1)OCO2` only.
## Result 1.01

## Task Answer with the recorded normalized growth of CCCC(C)C1(CC)C(=O)NC(=O)NC1=O (centres undefined) only.
## Result 1.02

## Task Answer with the recorded normalized growth of `O=C1C=CC2=C3c4cc(O)c(O)cc4C[C@@]3(O)COC2=C1` only.
## Result 1.01

## Task Answer with the recorded normalized growth of CC(=O)O[C@@H]1CC2C(C)(C)C=CC(=O)[C@]2(C)C2CC[C@@]3(C)[C@H](c4ccoc4)OC(=O)C4OC43[C@@]21C (some centres undefined) only.
## Result 1

## Task Answer with the recorded normalized growth of CC1(C)CC2C1(O)CCC1(C)C=CC(O)C21CO (centres undefined) only.
## Result 0.976

## Task Answer with the recorded normalized growth of C=CCC1(C(C)CCC)C(=O)N=C(S)NC1=O (centres undefined) only.
## Result 0.983
